Cited source: PubChem BioAssay

assay: IRF3 reporter activation in THP-1 macrophages, cell-based, PMA-stimulated THP-1, luminescence (AID 1053176); conditions: PMA-differentiated THP-1, IRF3 reporter luminescence; stronger effect = higher value
metric-name: fraction signal

> print(dat)
                                    molecule      metric.name  assay.result
 1  Nc1nc(-c2cccc(Cl)c2)c(-c2ccc3ncccc3n2)s1  fraction signal       -0.0045
 2  Nc1c(C(=O)c2ccc(-c3cccnc3)cc2)cnn1-c1ccc(F)cc1  fraction signal       -0.0025
 3  Nc1ncnc2occ(-c3ccc(NC(=O)Nc4cccc(C(F)(F)F)c4)cc3)c12  fraction signal        -0.016
 4    Cc1ccc(O)cc1Nc1ccnc2cc(-c3ccccn3)ccc12  fraction signal         0.014
 5  Cn1c(=O)c(Oc2ccc(F)cc2F)cc2cnc(NC(CO)CO)nc21  fraction signal        0.0035
 6  COc1ccc2c(C3=C(c4cn(C)c5ccccc45)C(=O)NC3=O)cn(C)c2c1  fraction signal        -0.007
 7  Cn1cc(C2=C(c3cn(CCCCN)c4ccccc34)C(=O)NC2=O)c2ccccc21  fraction signal          0.01
 8  CC(=O)Nc1ccc2c(C3=C(c4cn(C)c5ccccc45)C(=O)NC3=O)cn(C)c2c1  fraction signal        -0.009
 9   Cc1ccc(O)cc1Nc1ccnc2ccc(S(C)(=O)=O)cc12  fraction signal        -0.007
10     NCc1ccc(-n2c(-c3nonc3N)nc3cnccc32)cc1  fraction signal         0.003
11  Cn1cc(C2=C(c3c[nH]c4ccccc34)C(=O)NC2=O)c2ccccc21  fraction signal        0.0015
12  O=c1[nH]c2nc(NC3CCOCC3)ncc2cc1Oc1ccc(F)cc1F  fraction signal        -0.003
13  Cc1ccc(NC(=O)c2ccnc(N3CCCC3)c2)cc1-c1ccc(C(=O)NCC2CC2)cc1  fraction signal       -0.0005
14  Cn1cc(C2=C(c3cccc(NCC(O)CO)c3)C(=O)NC2=O)c2cc(Cl)ccc21 (stereo not given)  fraction signal       -0.0005
15  Fc1ccc(-c2ncn(C3CCNCC3)c2-c2ccnc(Oc3cccc(C(F)(F)F)c3)n2)cc1  fraction signal        0.0045
